# tested.system: human glucagon receptor (human, UniProt P47871 26-477)
# Sequence (P47871 26-477): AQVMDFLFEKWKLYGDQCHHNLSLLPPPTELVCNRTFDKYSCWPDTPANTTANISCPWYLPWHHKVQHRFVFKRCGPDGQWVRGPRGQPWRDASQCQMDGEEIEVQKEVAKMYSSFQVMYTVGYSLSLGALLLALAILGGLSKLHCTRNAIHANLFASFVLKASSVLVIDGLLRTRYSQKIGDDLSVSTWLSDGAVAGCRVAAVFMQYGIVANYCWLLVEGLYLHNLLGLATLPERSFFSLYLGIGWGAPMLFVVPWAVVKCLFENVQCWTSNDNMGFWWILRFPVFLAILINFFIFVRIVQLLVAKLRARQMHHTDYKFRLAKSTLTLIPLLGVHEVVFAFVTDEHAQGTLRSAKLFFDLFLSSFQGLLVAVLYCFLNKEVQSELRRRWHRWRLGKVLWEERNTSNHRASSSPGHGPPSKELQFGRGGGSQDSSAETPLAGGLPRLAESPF
# experimental.protocol: cell-based or functional assay
Numbered stars: 1 amine (or outer) side, 2 acyl side, 3 side chain; on linkers, the order of the positions; unused ones are H or OH. Square brackets hold non-standard residues; d marks the D form. Side chains are listed from the residue outwards. Ends that are not written are not given here. * marks the point of attachment. γGlu = O=C(O)[C@H](CCC(=O)[*:2])N[*:1]; Stearoyl = CCCCCCCCCCCCCCCCCC(=O)*; Palmitoyl = CCCCCCCCCCCCCCCC(=O)*; Aib = CC(C)(N)C(=O)O
Listed here are binders together with their documented EC50 hGlucagon-R (cAMP formation).
# output: bare number, implied unit nM

[[record]]
binder = "H[dS]HGTFTSDLSKQK([γGlu-Palmitoyl])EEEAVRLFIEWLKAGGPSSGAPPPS-NH2 [SEQ ID NO: 14]"
measured_endpoint = "EC50 hGlucagon-R (cAMP formation)"
measured_number = 0.0584

[[record]]
binder = "H-H[Aib]HGTFTSDLSKQK(Ac)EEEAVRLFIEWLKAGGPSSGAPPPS-NH2 [SEQ ID NO: 34]"
measured_endpoint = "EC50 hGlucagon-R (cAMP formation)"
measured_number = 0.829

[[record]]
binder = "H[Aib]HGTFTSDLSKQK([γGlu-Palmitoyl])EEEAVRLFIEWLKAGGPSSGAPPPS-NH2 [SEQ ID NO: 12]"
measured_endpoint = "EC50 hGlucagon-R (cAMP formation)"
measured_number = 0.0128


Query :: EC50 hGlucagon-R (cAMP formation) for H[Aib]HGTFTSDLSKQK([γGlu-Stearoyl])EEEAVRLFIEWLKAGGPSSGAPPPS-NH2 [SEQ ID NO: 7] ?
Result :: 0.0058
